// data source = ChEMBL document CHEMBL2029242

Test: Clearance in beagle dog at 1 mg/kg, iv and 10 mg/kg, po
Assay type: ADME, organism-based, Canis lupus familiaris
Conditions: in vivo
Value kind: clearance (mL/min/kg)

COc1cc2ncnc(Oc3cccc(NC(=O)Nc4cc(C(C)(C)C(F)(F)F)on4)c3)c2cc1OC [CEP-32496]    5

---

Assay: Stability in rat liver microsomes assessed as compound remaining at 1 uM after 60 mins
Format: ADME, Microsome
Details: read-out: Stability
Value kind: remaining at 1 h, 1 µM (%)

COc1cc2ncnc(Oc3cccc(NC(=O)Nc4cc(C(C)(C)F)no4)c3)c2cc1OC    82
COc1cc2ncnc(Oc3cccc(NC(=O)Nc4cc(C(C)(C)C)no4)c3)c2cc1OC    51
COc1cc2ncnc(Oc3cccc(NC(=O)Nc4cc(C(C)(C)F)on4)c3)c2cc1OC    92
COc1cc2ncnc(Oc3cccc(NC(=O)Nc4cc(C(C)(C)C(F)(F)F)on4)c3)c2cc1OC    81
COc1cc2ncnc(Oc3cccc(NC(=O)Nc4cc(C(C)(C)C)on4)c3)c2cc1OC    46

---

Biological target: UniProt:O60674
Sequence (O60674 whole entry): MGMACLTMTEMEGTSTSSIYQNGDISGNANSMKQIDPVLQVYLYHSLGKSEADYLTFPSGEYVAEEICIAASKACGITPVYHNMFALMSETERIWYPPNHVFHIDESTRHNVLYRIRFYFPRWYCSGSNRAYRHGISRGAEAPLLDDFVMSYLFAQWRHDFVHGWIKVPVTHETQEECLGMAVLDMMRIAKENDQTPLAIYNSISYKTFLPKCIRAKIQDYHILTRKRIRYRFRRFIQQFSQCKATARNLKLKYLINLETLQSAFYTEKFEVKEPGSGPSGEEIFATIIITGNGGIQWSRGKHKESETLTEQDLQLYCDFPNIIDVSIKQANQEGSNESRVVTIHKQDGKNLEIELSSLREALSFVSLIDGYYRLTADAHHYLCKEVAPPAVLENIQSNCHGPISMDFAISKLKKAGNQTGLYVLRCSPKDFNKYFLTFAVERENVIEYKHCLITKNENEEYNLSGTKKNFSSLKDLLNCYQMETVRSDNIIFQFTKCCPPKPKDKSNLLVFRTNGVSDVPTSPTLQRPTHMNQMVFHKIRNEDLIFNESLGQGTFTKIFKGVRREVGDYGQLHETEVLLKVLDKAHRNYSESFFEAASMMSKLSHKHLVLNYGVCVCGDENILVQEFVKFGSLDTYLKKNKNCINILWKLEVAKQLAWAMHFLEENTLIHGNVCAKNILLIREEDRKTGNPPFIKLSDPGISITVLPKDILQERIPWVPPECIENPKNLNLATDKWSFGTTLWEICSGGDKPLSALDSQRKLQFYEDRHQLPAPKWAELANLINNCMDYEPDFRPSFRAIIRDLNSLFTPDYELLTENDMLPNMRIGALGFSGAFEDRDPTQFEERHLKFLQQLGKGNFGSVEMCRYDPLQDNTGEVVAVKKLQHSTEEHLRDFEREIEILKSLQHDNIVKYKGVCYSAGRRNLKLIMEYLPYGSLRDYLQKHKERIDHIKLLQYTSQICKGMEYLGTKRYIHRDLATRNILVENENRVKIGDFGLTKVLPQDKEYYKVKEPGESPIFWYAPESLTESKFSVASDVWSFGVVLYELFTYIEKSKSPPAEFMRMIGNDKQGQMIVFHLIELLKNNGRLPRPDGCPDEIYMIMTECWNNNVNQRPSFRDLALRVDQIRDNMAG
Test: Inhibition of JAK2 in human HEK293 cells after 1 hr by competition binding assay
Value kind: Kd (µM)

COc1cc2ncnc(Oc3cccc(NC(=O)Nc4cc(C(C)(C)C(F)(F)F)on4)c3)c2cc1OC [CEP-32496]    4.7

---

Test: Volume of distribution in Sprague-Dawley rat at 1 mg/kg, iv and 10 mg/kg, po
Format: ADME, organism-based
Conditions: in vivo
Value kind: Vd (L/kg)

COc1cc2ncnc(Oc3cccc(NC(=O)Nc4cc(C(C)(C)C)nn4-c4ccccc4)c3)c2cc1OC    0.3
COc1cc2ncnc(Oc3cccc(NC(=O)Nc4cc(C(C)(C)C)no4)c3)c2cc1OC    1
COc1cc2ncnc(Oc3cccc(NC(=O)Nc4cc(C(C)(C)F)no4)c3)c2cc1OC    0.6
COc1cc2ncnc(Oc3cccc(NC(=O)Nc4cc(C(C)(C)F)on4)c3)c2cc1OC    0.5
COc1cc2ncnc(Oc3cccc(NC(=O)Nc4cc(C(C)(C)C(F)(F)F)on4)c3)c2cc1OC    1.6
COc1cc2ncnc(Oc3cccc(NC(=O)Nc4cc(C(C)(C)C)on4)c3)c2cc1OC    0.5

---

Assay: Cmax in Sprague-Dawley rat at 10 mg/kg, po
Assay type: ADME, organism-based
Set-up: dose 10 mg/kg, route oral
Conditions: in vivo
The entries below come with measured log10(Cmax) values attached.
Value kind: log10(Cmax) (log10 of the value in µM)

COc1cc2ncnc(Oc3cccc(NC(=O)Nc4cc(C(C)(C)C)on4)c3)c2cc1OC    1.04
COc1cc2ncnc(Oc3cccc(NC(=O)Nc4cc(C(C)(C)F)no4)c3)c2cc1OC    0.90
COc1cc2ncnc(Oc3cccc(NC(=O)Nc4cc(C(C)(C)C)nn4-c4ccccc4)c3)c2cc1OC    0.83
COc1cc2ncnc(Oc3cccc(NC(=O)Nc4cc(C(C)(C)C(F)(F)F)on4)c3)c2cc1OC    0.81
COc1cc2ncnc(Oc3cccc(NC(=O)Nc4cc(C(C)(C)F)on4)c3)c2cc1OC    1.32
COc1cc2ncnc(Oc3cccc(NC(=O)Nc4cc(C(C)(C)C)no4)c3)c2cc1OC    -0.15
COc1cc2ncnc(Oc3cccc(NC(=O)Nc4cc(C(C)(C)C(F)(F)F)no4)c3)c2cc1OC    0.67
